- Assayed system: cAMP and cAMP-inhibited cGMP 3',5'-cyclic phosphodiesterase 10A (Homo sapiens, UniProt Q9Y233)
- Experimental protocol: PDE10A assay
Result type: IC50 (nM)
Give bare numbers, in nM.

The following molecules have reported results that may help.
Molecule	Test value
O=C(NC1CCCC1)c1nc(C2CC2)cnc1Nc1cncnc1 [Roche-Dataset for PDE10A, Compound 1041]	965
Cn1cc(-c2ccccc2)nc1CCNC(=O)c1cccn2cnnc12 [Roche-Dataset for PDE10A, Compound 182]	392
CNC(=O)c1cc(NC(=O)c2c(C(=O)N3CCC3)cnn2C)nn1C [Roche-Dataset for PDE10A, Compound 1021]	10000

Switching to the query record.
# get_value(readout='IC50', item= Cc1nc2ccc(NC(=O)c3c(C(=O)N4CCC4)cnn3C)cn2n1 [Roche-Dataset for PDE10A, Compound 1007] )
3720

* * *

Can you tell me IC50 for the items I'm about to list?
- Assayed system: cAMP and cAMP-inhibited cGMP 3',5'-cyclic phosphodiesterase 10A (Homo sapiens)
Output should be the measured figure followed by the unit it is expressed in.

The following compounds have reported results that may help.
Compound	IC50
CCc1nc(C)c(C(=O)Nc2cc3nc(-c4ccccc4)[nH]c3cc2C(=O)NCC2(CO)COC2)o1 [Roche-Dataset for PDE10A, Compound 163]	7.27 nM
Cn1ncc(C(=O)N2CCC2)c1C(=O)Nc1ccn(-c2ccccn2)n1 [Roche-Dataset for PDE10A, Compound 1095]	785 nM
Cn1ncc(C(=O)N2CCC2)c1C(=O)Nc1cn(-c2ccc3ccccc3n2)cn1 [Roche-Dataset for PDE10A, Compound 137]	0.7 nM
CCn1ccc(NC(=O)c2nc(C3CC3)ccc2Nc2cncnc2)n1 [Roche-Dataset for PDE10A, Compound 819]	72 nM
COc1ccc(Cn2nc(CCc3nc4c(Cl)cc(Cl)c(C)n4n3)nc2N2CCCC2)cc1 [Roche-Dataset for PDE10A, Compound 37]	2.58 nM

For each of the compounds below, state IC50.
1. O=C(NCc1cocn1)c1nc(C2CC2)cnc1Nc1cncnc1 [Roche-Dataset for PDE10A, Compound 1089]
2. O=C(Nc1cc(C2CCCC2)n[nH]1)c1nc(C2CC2)ccc1Nc1cncnc1 [Roche-Dataset for PDE10A, Compound 653]
3. COC(=O)c1cccnc1C(=O)Nc1ccn2nc(-c3ccccc3)nc2c1 [Roche-Dataset for PDE10A, Compound 659]
4. COc1ccccc1-c1cn2c(n1)C[C@H](NC(=O)c1c(C(=O)N(C)C)cnn1C)CC2 [Roche-Dataset for PDE10A, Compound 473]

1: 1860 nM; 2: 375 nM; 3: 2720 nM; 4: 8.21 nM

# get_value(readout='IC50', item= O=C(N[C@@H]1CCN(c2ccc(Cl)nn2)C1)c1nc(C2CC2)ccc1Nc1cncnc1 [Roche-Dataset for PDE10A, Compound 923] )
12 nM

* * *

// cAMP and cAMP-inhibited cGMP 3',5'-cyclic phosphodiesterase 10A (Homo sapiens) pIC50 records
Give bare numbers, as −log10 of the molar value.

The following compounds have reported results that may help.
Compound	pIC50
NS(=O)(=O)c1ccc(CNC(=O)c2nc(C3CC3)cnc2Nc2cncnc2)cc1 [Roche-Dataset for PDE10A, Compound 817]	6.41
O=C(Nc1cc(-c2ccccn2)nn1CCc1ccccc1)c1nc(C2CC2)ccc1Nc1cncnc1	8.31
COCCN(C)c1nc(CCc2nc3c(C)ncc(C)n3n2)nn1C [Roche-Dataset for PDE10A, Compound 847]	5.75
CCCc1cccc(NC(=O)c2nc(C3CC3)cnc2Nc2cncnc2)n1 [Roche-Dataset for PDE10A, Compound 963]	7.80
CC(=O)N1CCC(NC(=O)c2nc(C3CC3)cnc2Nc2cncnc2)CC1 [Roche-Dataset for PDE10A, Compound 993]	5.00
Cn1ncc(NC(=O)c2c(C(=O)N3CCC3)cnn2C)c1C(=O)N1CCCCC1 [Roche-Dataset for PDE10A, Compound 1035]	5.36

Switching to the query record.
Missing value: pIC50, cAMP and cAMP-inhibited cGMP 3',5'-cyclic phosphodiesterase 10A (Homo sapiens), entry COc1ccc2c(=O)n(C)c3c(C(C)C)nc(-c4ccccc4Cl)n3c2c1 [Roche-Dataset for PDE10A, Compound 908] . Fill in?
6.11
